- test method notes: Probe fluorescence ratio response to stearic acid relative to ADIFAB2
- Assay type: binding
- condition set: response relative to ADIFAB2
measured property: DR/DR SA
Provide a numeric answer; units are not to be included.

Answered cases to consult:
{"molecule": "72S 73P 74I (protein, listed as Rattus norvegicus, PEPTIDE (1)...(131) wild-type rat intestinal fatty acid binding protein) AFDGTWKVDRNENYEKFMEKMGINVVKRKLGAHDNLKLTITQEGNKFTVKESSNFRNIDVVFELGVDFAYSSPIGTELTGTWTMEGNKLVGKFKRVDNGKELIAVREISGNELIQTYTYEGVEAKRIFKKE", "DR/DR SA": 1.337}
{"molecule": "60T 104T 115W 74F 72A (protein, listed as Rattus norvegicus, PEPTIDE (1)...(131) wild-type rat intestinal fatty acid binding protein) AFDGTWKVDRNENYEKFMEKMGINVVKRKLGAHDNLKLTITQEGNKFTVKESSNFRNIDTVFELGVDFAYSAAFGTELTGTWTMEGNKLVGKFKRVDNGKELITVREISGNELIWTYTYEGVEAKRIFKKE", "DR/DR SA": 0.633}
{"molecule": "72T 73Q 74A (protein, listed as Rattus norvegicus, PEPTIDE (1)...(131) wild-type rat intestinal fatty acid binding protein) AFDGTWKVDRNENYEKFMEKMGINVVKRKLGAHDNLKLTITQEGNKFTVKESSNFRNIDVVFELGVDFAYSTQAGTELTGTWTMEGNKLVGKFKRVDNGKELIAVREISGNELIQTYTYEGVEAKRIFKKE", "DR/DR SA": 2.318}
{"molecule": "72A 73W 74A (protein, listed as Rattus norvegicus, PEPTIDE (1)...(131) wild-type rat intestinal fatty acid binding protein) AFDGTWKVDRNENYEKFMEKMGINVVKRKLGAHDNLKLTITQEGNKFTVKESSNFRNIDVVFELGVDFAYSAWAGTELTGTWTMEGNKLVGKFKRVDNGKELIAVREISGNELIQTYTYEGVEAKRIFKKE", "DR/DR SA": 0.330}

# context switch: different molecule, same DR/DR SA
query: Fill in the blank: the reported DR/DR SA of 18I 31Y 73G 72A (protein, listed as Rattus norvegicus, PEPTIDE (1)...(131) wild-type rat intestinal fatty acid binding protein) AFDGTWKVDRNENYEKFIEKMGINVVKRKLYAHDNLKLTITQEGNKFTVKESSNFRNIDVVFELGVDFAYSAGDGTELTGTWTMEGNKLVGKFKRVDNGKELIAVREISGNELIQTYTYEGVEAKRIFKKE is ____.
result: 0.860
